- Test: Biochemical counterscreen for C difficile toxins, absence of UDPG, inhibitor dose response (AID 720650)
- Run conditions: series mostly up to 19.5 µM
Calls of active or inactive are those of the source. No rule for the calls is given here.
Just give me one of these, please: 1 = active, -1 = inactive

1. O=C(O)c1cccnc1SCc1ccccc1Cl: -1
2. Oc1ccc(-c2nccs2)cc1: 1
3. Cn1c(SCC(=O)c2cc3ccccc3o2)nnc1-c1ccccc1: -1
4. COc1ccc(C2=NS(=O)(=O)N(C)C(C(=O)N3CCN(C)CC3)=C2)cc1: -1
5. COCC(=O)N1CC[C@@H]2[C@@H](CO)N(C)c3ccc(-c4ccccc4)cc3[C@@H]21: 1

**Query** For Cc1ccccc1NS(=O)(=O)c1ccc(OCC(=O)N2CCCCC2)cc1 , which call appears in the assay record?
**Result** -1
